assay: Chemical stability in simulated gastric fluid assessed as compound remaining at 4 uM after 15 mins; assay type: physicochemical; conditions: read-out: Stability
property_name: remaining at 0.25 h, 4 µM (%)

[[record]]
structure_smiles = "CC(C)C[C@H](NC(=O)CN1CCOCC1)C(=O)N[C@@H](Cc1ccccc1)C(=O)N[C@@H](CC(C)C)C(=O)[C@@]1(C)CO1"
property_name = "remaining at 0.25 h, 4 µM"
endpoint_result = 90

[[record]]
structure_smiles = "CC(C)C[C@H](NC(=O)[C@H](CCc1ccccc1)NC(=O)CN1CCOCC1)C(=O)N[C@@H](Cc1ccccc1)C(=O)N[C@@H](CC(C)C)C(=O)[C@@]1(C)CO1"
property_name = "remaining at 0.25 h, 4 µM"
endpoint_result = 15

